Each entry below lists one item and its recorded inhibition value.
- assay_system: UniProt O75355
- Sequence (O75355 whole entry): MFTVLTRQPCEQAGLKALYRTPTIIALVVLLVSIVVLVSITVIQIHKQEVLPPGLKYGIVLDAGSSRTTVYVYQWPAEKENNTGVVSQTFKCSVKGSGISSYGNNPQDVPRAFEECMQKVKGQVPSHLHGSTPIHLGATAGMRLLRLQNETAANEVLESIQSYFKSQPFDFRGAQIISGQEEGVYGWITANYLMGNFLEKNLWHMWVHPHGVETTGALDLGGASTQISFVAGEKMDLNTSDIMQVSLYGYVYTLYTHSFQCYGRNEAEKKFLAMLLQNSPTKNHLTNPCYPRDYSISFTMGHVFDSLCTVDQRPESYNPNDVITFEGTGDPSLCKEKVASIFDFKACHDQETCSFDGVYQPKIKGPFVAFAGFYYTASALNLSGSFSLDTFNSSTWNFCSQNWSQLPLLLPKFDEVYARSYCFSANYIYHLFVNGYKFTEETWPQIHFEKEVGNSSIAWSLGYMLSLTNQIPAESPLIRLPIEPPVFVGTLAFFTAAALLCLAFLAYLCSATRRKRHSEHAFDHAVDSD
- assay_overview: Inhibition of human NTPDase3 assessed as amount of inorganic phosphate released using ATP as the substrate preincubated at 100 uM for 3 mins before substrate addition after 15 mins by malachite green reagent method
measure: inhibition

smiles_text: CSc1nc(N)c2ncn([C@@H]3O[C@H](COP(=O)(O)OP(=O)(O)CP(=O)(O)O)[C@@H](O)[C@H]3O)c2n1
measure: inhibition
val: < 18%
//
smiles_text: CSc1nc(N)c2ncn([C@@H]3O[C@H](COP(=O)(O)C(F)(F)P(=O)(O)O)[C@@H](O)[C@H]3O)c2n1
measure: inhibition
val: < 18%
//
smiles_text: B[P@](=O)(OC[C@H]1O[C@@H](n2cnc3c(N)nc(SC)nc32)[C@H](O)[C@@H]1O)OP(=O)(O)CP(=O)(O)O
measure: inhibition
val: < 18%
